B1: tRNA (parent)
chain: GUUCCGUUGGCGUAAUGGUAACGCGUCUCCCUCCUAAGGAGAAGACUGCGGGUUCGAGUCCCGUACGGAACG

- Variants of: B1
- procedure-details: yeast fitness relative to wild type (ratio to wild type); higher = fitter; tRNA-Arg(CCU), competitive growth, 37 C, YPD
Variants at the floor of the assay were thinned out.
Label yes when yeast fitness >= 0.7; otherwise no.

mutation_notation="A37G A42C A65U A69C" cat=no
mutation_notation="U3A A14C A20C U28A C29G U32C G39A A70C" cat=no
mutation_notation="U7C A21C C34A U35G G44C C61G" cat=no
mutation_notation="C11U C29U C61U U64C" cat=no
mutation_notation="G6C U59A C60U" cat=no
mutation_notation="U8C U19A A40C G44C G48C U53G" cat=no
mutation_notation="A15G C27A A36G A43G A65G" cat=no
mutation_notation="C11U A15G U32A C49A G56C" cat=no
mutation_notation="U2G C49U C66U" cat=no
mutation_notation="G10C C49A C55A C62U C66U" cat=no
mutation_notation="A15G G17A A21C" cat=no
mutation_notation="G9A A21C G25C U64A G67A" cat=no
mutation_notation="U19C A20G A37G" cat=no
mutation_notation="A14G C66A" cat=no
mutation_notation="G9A C60G" cat=no
mutation_notation="A14G G58C A70U" cat=yes
mutation_notation="U19A A37C" cat=yes
mutation_notation="C5G C30U A36U G51C" cat=no
mutation_notation="G6A G44A C46A G52A A65U" cat=no
mutation_notation="A15C U35C A42G G67U" cat=no
mutation_notation="G17A A45G A65U" cat=no
mutation_notation="A37U G48C A70U" cat=no
mutation_notation="C34G G41C A69U" cat=no
mutation_notation="U13G G39C" cat=yes
mutation_notation="A20G C24A A45C" cat=no
mutation_notation="U16A A69G" cat=yes
mutation_notation="C49U U59C" cat=yes
mutation_notation="G9C G39C G41A A43U" cat=no
mutation_notation="A15U G18C G41A A69C A70G" cat=no
mutation_notation="U7A A14U A20C U28C C46U G58A" cat=no
mutation_notation="U2A C5U A65U A69U" cat=no
mutation_notation="U26C U28C C29G C34A" cat=no
mutation_notation="A15U A43C" cat=yes
mutation_notation="C11U A15G C46U" cat=yes
mutation_notation="C5G G51A G68A" cat=no
mutation_notation="A15C A36G" cat=yes
mutation_notation="C4U A20G A69C" cat=yes
mutation_notation="G6C C60U C62A" cat=no
mutation_notation="G58A C60U C62A" cat=no
mutation_notation="C33A A45G A70U" cat=no
mutation_notation="C5A C33G C34A A40C G67A" cat=no
mutation_notation="A36U C46G A69U" cat=no
mutation_notation="G6A U19C G41C" cat=no
mutation_notation="U7C A21U C24A C62U U64C" cat=no
mutation_notation="C4G C24U A43U" cat=no

Cited source for all entries: the RNAGym collection of RNA variant scans (doi:10.1126/science.aae0568)
